- testedTarget: human Nav1.7 (Homo sapiens (Human), UniProt Q15858)
- Sequence (Q15858 whole entry): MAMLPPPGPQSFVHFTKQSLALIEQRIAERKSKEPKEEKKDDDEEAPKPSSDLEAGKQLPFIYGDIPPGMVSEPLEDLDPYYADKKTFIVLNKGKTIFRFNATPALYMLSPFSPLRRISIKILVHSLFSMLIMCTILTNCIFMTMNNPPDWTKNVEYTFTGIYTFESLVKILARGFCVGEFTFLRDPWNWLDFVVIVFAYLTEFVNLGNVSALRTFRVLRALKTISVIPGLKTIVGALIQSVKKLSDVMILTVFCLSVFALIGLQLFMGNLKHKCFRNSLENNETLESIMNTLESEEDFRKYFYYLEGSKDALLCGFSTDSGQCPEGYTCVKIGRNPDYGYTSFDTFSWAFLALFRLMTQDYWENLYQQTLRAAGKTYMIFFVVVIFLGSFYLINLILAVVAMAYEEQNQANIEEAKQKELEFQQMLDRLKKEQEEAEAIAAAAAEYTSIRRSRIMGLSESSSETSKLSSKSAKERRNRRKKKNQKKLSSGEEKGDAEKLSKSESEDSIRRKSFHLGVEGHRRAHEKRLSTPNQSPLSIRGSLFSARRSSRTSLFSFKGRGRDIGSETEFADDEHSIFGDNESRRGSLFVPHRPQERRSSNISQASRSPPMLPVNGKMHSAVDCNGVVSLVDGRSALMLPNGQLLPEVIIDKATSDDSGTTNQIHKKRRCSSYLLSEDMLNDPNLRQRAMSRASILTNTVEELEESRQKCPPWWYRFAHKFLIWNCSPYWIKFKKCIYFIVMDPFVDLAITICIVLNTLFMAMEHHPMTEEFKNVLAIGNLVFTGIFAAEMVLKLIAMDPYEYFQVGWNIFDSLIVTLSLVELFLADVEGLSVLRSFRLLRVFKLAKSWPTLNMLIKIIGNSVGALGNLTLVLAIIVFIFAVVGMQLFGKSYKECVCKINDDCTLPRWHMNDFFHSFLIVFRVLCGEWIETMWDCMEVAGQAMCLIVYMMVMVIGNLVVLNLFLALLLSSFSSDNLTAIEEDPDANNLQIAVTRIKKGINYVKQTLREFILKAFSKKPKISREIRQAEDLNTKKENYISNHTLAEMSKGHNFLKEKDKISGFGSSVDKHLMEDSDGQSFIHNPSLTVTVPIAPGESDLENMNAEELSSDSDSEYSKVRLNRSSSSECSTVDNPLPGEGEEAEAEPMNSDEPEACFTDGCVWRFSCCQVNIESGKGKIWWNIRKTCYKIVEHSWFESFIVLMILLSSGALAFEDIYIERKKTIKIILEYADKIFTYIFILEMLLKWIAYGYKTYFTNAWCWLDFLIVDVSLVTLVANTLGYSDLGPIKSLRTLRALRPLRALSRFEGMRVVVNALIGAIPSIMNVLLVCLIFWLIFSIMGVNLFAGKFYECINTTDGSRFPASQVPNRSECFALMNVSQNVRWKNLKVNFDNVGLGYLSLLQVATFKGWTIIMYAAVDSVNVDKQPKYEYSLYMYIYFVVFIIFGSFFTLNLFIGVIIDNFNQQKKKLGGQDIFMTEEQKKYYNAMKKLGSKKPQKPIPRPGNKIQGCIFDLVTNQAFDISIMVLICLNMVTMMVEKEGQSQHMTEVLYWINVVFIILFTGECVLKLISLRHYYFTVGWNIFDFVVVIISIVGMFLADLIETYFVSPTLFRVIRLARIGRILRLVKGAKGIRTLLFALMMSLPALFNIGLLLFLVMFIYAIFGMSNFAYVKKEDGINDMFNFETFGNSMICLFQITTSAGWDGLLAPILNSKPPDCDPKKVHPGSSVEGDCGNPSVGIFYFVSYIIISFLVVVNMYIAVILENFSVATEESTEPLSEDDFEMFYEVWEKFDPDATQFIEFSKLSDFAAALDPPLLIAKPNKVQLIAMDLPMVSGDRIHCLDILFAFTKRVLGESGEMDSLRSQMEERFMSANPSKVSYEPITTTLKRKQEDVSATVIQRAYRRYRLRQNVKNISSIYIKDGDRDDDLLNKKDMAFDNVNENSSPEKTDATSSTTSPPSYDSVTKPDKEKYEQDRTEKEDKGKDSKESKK
- Sequence (Q07699 19-218 partner): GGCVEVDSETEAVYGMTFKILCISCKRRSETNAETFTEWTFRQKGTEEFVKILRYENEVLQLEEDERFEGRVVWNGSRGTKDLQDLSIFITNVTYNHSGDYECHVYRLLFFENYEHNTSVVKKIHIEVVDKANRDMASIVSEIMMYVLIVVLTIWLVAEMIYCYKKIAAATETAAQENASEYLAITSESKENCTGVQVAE
- testDescription: Human Nav1.7 inhibitory activity evaluation (automated patch clamp QPatch16X, HEK293A cells stably expressing human Nav1.7 and human Navβ1)
- Type: cell-based
- reportedConditions: human Nav1.7, automated patch clamp
- Procedure: Test Example 1: Human Nav1.7 Inhibitory Activity Evaluation A cell line in which human Nav1.7 and human Navβ1 subunits were stably expressed in HEK293A cells was used. […] The amount of current through human Nav1.7 was recorded using a fully automatic patch clamp device QPatch16X (Sophion Biosciences) at room temperature. […]
recordedMetric: IC50

[
  {
    "molecule": "N#Cc1ccc2c(c1)C[C@@H](NC(=O)c1cc3n(n1)CC(CCOCC1CC1)O3)CO2 (single isomer, unassigned) [202 (isomer B)]",
    "recordedMetric": "IC50",
    "reportedMeasurement": "< 1000 nM"
  },
  {
    "molecule": "O=C(NC1COc2cccc(-c3ccccc3)c2C1)c1cn2c(n1)CCC(C(F)(F)F)C2 (stereo not shown) [Example 291]",
    "recordedMetric": "IC50",
    "reportedMeasurement": "< 10000 nM"
  },
  {
    "molecule": "O=C(N[C@H]1COc2ccc(CC(F)F)cc2C1)c1cc2n(n1)CCC(C1CCOCC1)O2 (stereo partly shown) [Example 586]",
    "recordedMetric": "IC50",
    "reportedMeasurement": "< 1000 nM"
  },
  {
    "molecule": "COC1c2cc(C(F)(F)F)ccc2OC[C@@H]1NC(=O)c1cc2n(n1)CC(COCC(F)(F)F)O2 (stereo partly shown) [Example 569]",
    "recordedMetric": "IC50",
    "reportedMeasurement": "< 1000 nM"
  },
  {
    "molecule": "CN(C)C(=O)COCc1ccc2c(c1)C[C@@H](NC(=O)c1cc3n(n1)CCC(c1ccccc1F)O3)CO2 (stereo partly shown) [Example 370]",
    "recordedMetric": "IC50",
    "reportedMeasurement": "< 10000 nM"
  }
]

Given item N#Cc1ccc2c(c1)C[C@@H](NC(=O)c1cc3n(n1)CCC(C1CCC1)O3)CO2 (stereo partly shown) [Example 388] , the value recorded as its IC50 is < 1000 nM

Given item N#Cc1ccc2c(c1)C[C@@H](NC(=O)c1cc3n(n1)CC(COCC1CC1)O3)CO2 (stereo partly shown) [Example 454] , the value recorded as its IC50 is < 10000 nM

Given item O=C(N[C@H]1COc2ccc(CCOC(F)(F)F)cc2C1)c1cc2n(n1)CC(CCN1CC(F)(F)C1)O2 (single isomer, unassigned) [240 (isomer B)] , the value recorded as its IC50 is < 10000 nM

Given item O=C(N[C@H]1COc2ccc(Cl)cc2C1)c1cc2n(n1)CCC(OCC(F)(F)F)CO2 (single isomer, unassigned) [256 (isomer A)] , the value recorded as its IC50 is < 1000 nM

Given item CC1(C)CCn2nc(C(=O)N[C@H]3COc4ccc(-c5ccccn5)cc4C3)cc2O1 [Example 383] , the value recorded as its IC50 is < 1000 nM

Given item CN1Cc2nc(C(=O)NCCc3cccc(OCC4CCOCC4)c3)cn2CC1c1ccccc1 (stereo not shown) [Example 327] , the value recorded as its IC50 is < 10000 nM

Given item O=C(N[C@H]1COc2ccc(C(F)(F)F)cc2C1)c1cc2n(n1)CCN(CCOCC(F)F)C2 [Example 666] , the value recorded as its IC50 is < 10000 nM

Given item O=C(N[C@H]1COc2ccc(C(F)(F)F)cc2C1O)c1cc2n(n1)CC(CCCOCC(F)(F)F)O2 (single isomer, unassigned) [603 (isomer B)] , the value recorded as its IC50 is < 1000 nM

Given item N#Cc1ccc2c(c1)C[C@@H](NC(=O)c1cc3n(n1)CCC(COCCOCC(F)(F)F)O3)CO2 (stereo partly shown) [Example 664] , the value recorded as its IC50 is < 10000 nM

Given item O=C(N[C@H]1COc2ccccc2C1)c1cc2n(n1)CCN(CC1CC(F)(F)C1)C2 [Example 488] , the value recorded as its IC50 is < 10000 nM

Given item O=C(N[C@H]1COc2ccc(Cl)cc2C1)c1cc2n(n1)CCC(C(F)(F)F)O2 (single isomer, unassigned) [170 (isomer B)] , the value recorded as its IC50 is < 1000 nM

Given item O=C(N[C@H]1COc2ccc(C(F)(F)F)cc2C1)c1cc2n(n1)CCC(COCC1(F)CC1)O2 (stereo partly shown) [Example 533] , the value recorded as its IC50 is < 1000 nM
